# target: AgSla1-D1-D2
# measurementNotes: SPOT peptide array binding signal intensity (averaged, normalized) (arbitrary units (background-subtracted, floor 0; scale differs between SH3 domains)); higher = stronger binding of the SH3 domain to the peptide
measurementType: SPOT peptide array binding signal intensity
One number for each entry.

binder=IVNKPLPPLPVAGSS quantitativeresult=1
binder=VRTRRRPPPPPIPST quantitativeresult=20
binder=FIRKRAPTPPAPSRS quantitativeresult=196
binder=MSPLGAPPPPPHKDH quantitativeresult=2
binder=VRVKKRPLIRPLNSS quantitativeresult=442
binder=KFIPSRPAPKPPSSA quantitativeresult=51
binder=RRASLFPRDPKRLRP quantitativeresult=116
binder=RFKRHRLEFPFNESE quantitativeresult=98

Please report SPOT peptide array binding signal intensity for every entry that follows.
1. NGRRRPKFRVQLSGN
2. LPPPPPPPPPPPLPQ
3. RLPAPPPPPRRGPAP
4. SKAKRPKFLLDLQIK
5. NTMKKRPAPPSLPSL

Given back:
[462, 4.5, 5, 214, 114]
